tested on: MDA-MB-468 breast; test: NCI-60 one-dose screen, 48 h (100 = growth as untreated, 0 = no growth, -100 = all killed); details: 10 µM unless noted
About 83,000 compounds went through this panel and 20% of them were active in at least one assay; those are over-represented in the sample as a whole.

compound	study_target	growth, %
CCOC(=O)/C=C1\S/C(=N\Nc2cc(=O)[nH]c3ccc(OC)cc23)N(c2ccccc2)C1=O	MDA-MB-468 breast	101
Oc1ccc(/C=C/c2ccccc2)cc1	MDA-MB-468 breast	81.3
CC(C)=C1CCC(C)C/C1=N\N=C(N)N (stereo not given)	MDA-MB-468 breast	101
Cc1ccc(CN2CCC(C(=O)Nc3ccc(-c4cc5ccccc5[nH]4)cc3)CC2)o1	MDA-MB-468 breast	5.26
Clc1ccc(C2CC(c3cccc(Nc4ccncc4)c3)=NN2c2ccc(Cl)cc2)cc1 (stereo not given)	MDA-MB-468 breast	-35.3
N=C(N)c1ccc(-c2ccc(-c3ccc(Cl)cc3Cl)o2)nc1	MDA-MB-468 breast	-33.8
CCOC(=O)CSc1ncnc2c1c(-c1ccccc1)c(-c1ccccc1)n2-c1ccc(C)cc1	MDA-MB-468 breast	51.9
COc1cc(-c2nn(-c3ccc(NC(=O)Nc4ccc(Cl)c(C(F)(F)F)c4)cc3)cc2-c2ccncc2)ccc1Cl	MDA-MB-468 breast	-13.2
CCc1ccc(Oc2c(-c3ccc(OCc4ccc(Cl)cc4)cc3O)n[nH]c2C(F)(F)F)cc1	MDA-MB-468 breast	13.1
O=C(Nc1cnc(C(F)(F)F)cn1)c1cc(Cl)ccc1O	MDA-MB-468 breast	-0.82

---

Measured growth, listed per entry.
system: MDA-MB-468 breast; assay: NCI-60 one-dose screen, 48 h (100 = growth as untreated, 0 = no growth, -100 = all killed); details: 10 µM unless noted
The panel holds about 83,000 compounds, 20% with a hit somewhere; the sample as a whole holds those more often.
quantity_name: growth (%)

compound	observed_result
O=C(Nc1cccc2[nH]c(C(F)(F)F)nc12)c1ccc(Br)cc1F	11.9
COc1cc2cc(Oc3ccc(NC(=O)Nc4ccc(C(F)(F)F)cc4)cc3)c(C)nc2cc1OC	40.1
COc1cc(Cl)ccc1C	64.9
O=C1/C(=C\c2cn(C(=O)c3ccc(Cl)cc3)c3ccccc23)c2ccccc2N1c1c(Cl)cccc1Cl	97.7
S=c1[nH]ccn1-c1ccccc1Cl	103
O=C1/C(=C\c2cccnc2)SC(=S)N1CCc1ccc(O)cc1	35.2
Cc1cc(CC(=O)NCCO)n(CCO)c(=O)c1	113
N[C@@H](CC/[N+]([O-])=N/O)C(=O)O	97.4
Cc1ccc(-n2c(C)nn3c(=O)c4c5c(sc4nc23)CN(C)CC5)cc1	102
O=C(/C=C\c1cccc([N+](=O)[O-])c1)c1ccccc1	-13.8
N#C/C(=C\c1cn(Cc2ccccc2)c2ccccc12)C(=O)Nc1ncc(Cc2ccccc2Cl)s1	-14.7
NC(=O)c1cccc(N2Cc3ccccc3OC3=C2C(=O)c2c(O)ccc(O)c2C3=O)c1	-21.4
O=C(O)c1ccccc1Oc1cc(-c2ccco2)nc(OCCN2CCOCC2)n1	105
COC(=O)c1nc(-c2ccc(C)cc2)oc1S(=O)(=O)N1CCN(c2oc(-c3ccccc3)nc2C#N)CC1	93.9
C=CC(=O)Nc1cccc(Nc2nc(Nc3ccc(OCCOC(F)F)cc3)ncc2F)c1	-27.9
COc1cc(/C=C/c2cc(O)c(C(C)=O)c(O)c2)cc2c1O[C@]1(C)CC[C@@H](O)C(C)(C)[C@H]1C2	77.6
CC1=NC2=CC=CC3=NC(C(Cl)(Cl)Cl)=NC(=N1)N23	90.2
COc1ccc(C2OC(N)=C(O)C2=O)cc1OC (stereo unspecified)	109
CS(=O)CC(=N\O)/C(CS(C)=O)=N\O (stereo unspecified)	104
Cc1c2cc[nH]c(=O)c2c(C)c2c1[nH]c1ccc(OC(=O)c3ccccc3)cc12	12.6
COc1cc(-c2nn(-c3ccc(NC(=O)c4ccc(Cl)c(C(F)(F)F)c4)cc3)cc2-c2ccncc2)ccc1Cl	26
